B1: CPN1 (parent)
chain: RGVRRTASTPTPDDKLFQKLAKVY

Variants of: B1
Assay: protein stability index of a GFP-peptide fusion (GPS, HEK-293T) (PSI 1-6); higher = more stable;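 note: lentivirally expressed fusions sorted by FACS into six bins by GFP to DsRed ratio, PSI derived from sequencing read proportions per bin multiplied by bin number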
Conditions: c terminus: a fixed tail appended
Endpoint: protein stability index
Number, no unit, nothing else.

Y24F | 1.95
K22Y | 1.97
Y24W | 1.98

API: the following record is the query input.
-- ask Name the reported protein stability index value associated with the variant D14A
-- reply 2.05

Sourced from the supplement of paper PMC10567573
